Experiment: in vitro
Conditions: human, hela cells, % viability
Give measured viability at 28.5 h, 10 µM for each item. Keep answers brief.
Give bare numbers, in %.

Worked cases, answers included:
| compound structure | measured property | result number |
| --- | --- | --- |
| CN(C)CCN(Cc1ccccc1)C(=O)Nc1cccnc1 | viability at 28.5 h, 10 µM | 95 |
| Nc1ncc(-c2ccc(C(=O)N3CCOCC3)cc2)nc1C(=O)NCc1ccc(O)cc1 | viability at 28.5 h, 10 µM | 109 |
| Clc1cccc(-c2nc(NCCCN3CCOCC3)c3ccccc3n2)c1 | viability at 28.5 h, 10 µM | 76 |
| O=C(c1ccc2c(c1)OCCO2)N1CCN(C(=O)c2ccco2)CC1 | viability at 28.5 h, 10 µM | 101 |

State its viability at 28.5 h, 10 µM: OCCCN1CCCN(c2ccnc(OCCN3CCOCC3)n2)CC1
104
